Below: a set of entries, each annotated with reported log10 of IC50.
assay.details: in vitro
particulars: human
Log10 applied to IC50; unit prior to transform: nM.

Some entries whose results are on file:
C[C@H]1[C@@H](OCc2ccc(C(=O)NCC3(C(=O)O)CCC3)cc2)O[C@@H]2O[C@@]3(C)CC[C@H]4[C@H](C)CC[C@@H]1[C@@]24OO3
3.18
C[C@H]1[C@@H](OC[C@H]2CC[C@@H](C(=O)N[C@@H](CC(F)(F)F)C(=O)O)CC2)O[C@@H]2O[C@@]3(C)CC[C@H]4[C@H](C)CC[C@@H]1[C@@]24OO3
4.18

Form field: reported log10 of IC50 of C[C@H]1[C@@H](Oc2ccc([C@@H](C)C(=O)O)cc2F)O[C@@H]2O[C@@]3(C)CC[C@H]4[C@H](C)CC[C@@H]1[C@@]24OO3
3.69
